# test: solubility of the compound of formula (I) in media and formulations
# Format: physicochemical
# test parameters: organic solvent or mixture; dilution in PEG alone; read-out: solubility
readout type: solubility

solubility recorded for this compound, `CC(C)(C)NC(=O)Nc1nc2nc(Nc3ccc4nsnc4c3)ncc2cc1-c1c(Cl)cccc1Cl` , is ≤ 7 mg/mL
